Where do the numbers come from? From patent US20040266623A1.

Tested on: plantain
Test: Greenhouse pot test, postemergent spray, visual control rating converted to percent control
Type: in vivo
Settings: Test 3, 24 HAT; scale 1=no control, 9=death of plant
result type: Control (1-9) Plantain
Number, no unit, nothing else.

Solved entries:
{"columns": ["compound", "Control (1-9) Plantain"],
 "data": [
  ["O=C(O)c1c(Cl)ccc2cc(Cl)cnc12 [Quinclorac @ 0.75 lbs/A]", 1],
  ["Cc1nn(-c2cc(NS(C)(=O)=O)c(Cl)cc2Cl)c(=O)n1C(F)F [Sulfentrazone @ 0.02 lbs/A]", 4],
  ["O=C(O)c1c(Cl)ccc2cc(Cl)cnc12 [Quinclorac @ 0.18 lbs/A]", 1],
  ["Cc1nn(-c2cc(NS(C)(=O)=O)c(Cl)cc2Cl)c(=O)n1C(F)F [Sulfentrazone @ 0.03 lbs/A]", 4],
  ["Cc1cc(Cl)ccc1OCC(=O)OCCCCCC(C)C", 4]
]}

Attention now shifts to the item below.
Measured Control (1-9) Plantain of O=C(O)c1c(Cl)ccc2cc(Cl)cnc12 [Quinclorac @ 0.375 lbs/A] : 1
